These measurements were taken from patent US12421254B2.

Below, each entry is listed with its recorded pIC50.
target: GST-tagged KRAS-G12D (2-169) (Homo sapiens, UniProt P01116, G12D); assay: Nucleotide exchange assay (NEA), SOS-mediated, HTRF, KRAS G12D; type: biochemical; conditions: Table 4; IC50 extracted at 30 min; 20 nM SOScat; read-out: NEA G12D IC50
Sequence (P01116 2-169 isoform P01116-2 G12D): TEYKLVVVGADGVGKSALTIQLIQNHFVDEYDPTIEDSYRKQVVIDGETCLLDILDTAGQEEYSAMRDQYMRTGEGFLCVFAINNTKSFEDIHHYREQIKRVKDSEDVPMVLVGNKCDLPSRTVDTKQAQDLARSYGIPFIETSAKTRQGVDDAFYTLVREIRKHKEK
pIC50: −log10 of the molar value.
assay_readout: pIC50

- compound: "N#CCC12CC1CCN(c1nc(OC[C@@]34CCCN3C[C@H](F)C4)nc(N3CC4(CCc5sc(N)c(C#N)c54)C3)n1)C2 (stereo partly drawn) [Compound 43]"
  assay_readout: "pIC50"
  observed: "7.00 to 8.00"
- compound: "CN(CC1(C#N)CC1)c1nc(OC[C@@]23CCCN2C[C@H](F)C3)nc(N2CCC3(CCc4sc(N)c(C#N)c43)C2)n1 (stereo partly drawn) [Compound 14]"
  assay_readout: "pIC50"
  observed: "4.70 to 6.00"
- compound: "CCN(c1nc(OC[C@]23CC[C@H](CN(C)C2)N3)nc(N2CC3(C2)SCc2sc(N)c(C#N)c23)n1)[C@H](C)c1cccnc1N [Compound 214]"
  assay_readout: "pIC50"
  observed: "> 8.00"

----------
Below: a set of entries, each annotated with reported IC50.
target: GST-tagged KRAS-G12V (2-169) (Homo sapiens, UniProt P01116, G12V); assay: Nucleotide exchange assay (NEA), SOS-mediated, HTRF, KRAS G12V; conditions: Table 4; IC50 extracted at 90 min; 80 nM SOS
Sequence (P01116 2-169 isoform P01116-2 G12V): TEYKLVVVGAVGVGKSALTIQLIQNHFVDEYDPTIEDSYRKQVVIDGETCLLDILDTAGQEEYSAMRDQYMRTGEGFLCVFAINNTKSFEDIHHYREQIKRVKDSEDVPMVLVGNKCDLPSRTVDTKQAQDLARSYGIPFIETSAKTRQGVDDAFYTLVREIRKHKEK

- compound: "C[C@H](c1cccnc1N)N(CC(F)F)c1nc(OC[C@@H]2CCCN2C)nc(N2CC3(C2)SCc2sc(N)c(C#N)c23)n1"
  IC50: "< 10 nM"
- compound: "C[C@H](c1cccnc1N)N(C)c1nc(OC[C@@]23CCCN2C[C@H](F)C3)nc(N2CC(C)(c3csc(N)c3C#N)C2)n1"
  IC50: "< 10 nM"
- compound: "C[C@@]1(O)C[C@H](F)CN(c2nc(OC[C@@]34CCCN3C[C@H](F)C4)nc(N3CC4(C3)SCc3sc(N)c(C#N)c34)n2)C1"
  IC50: "< 10 nM"
- compound: "C[C@H](c1cccnc1N)N(C)c1nc(OC[C@@]23CCCN2C[C@H](F)C3)nc(N2CC3(CCc4cnn(C)c43)C2)n1"
  IC50: "1000 to 20000 nM"
- compound: "COC[C@@H]1CC[C@@H](COc2nc(N3CC4(C3)SCc3sc(N)c(C#N)c34)nc(N(CC(F)F)C(C)c3cccnc3N)n2)N1 (mixture of isomers)"
  IC50: "< 10 nM"
- compound: "C[C@@]1(O)CCCN(c2nc(OC[C@@]34CCCN3C[C@H](F)C4)nc(N3CCC4(CCc5sc(N)c(C#N)c54)C3)n2)C1 (stereo partly drawn)"
  IC50: "100 to 1000 nM"

----------
tested on: phospho-ERK in SW620 (KRAS-G12V) cells; assay: pERK In Cell Western (ICW) assay (Method B), SW620; assay type: cell-based; details: Homo sapiens, SW-620, 3 h, Table 4
Each entry below carries its reported IC50.

- compound: "CC(CC#N)N(C)c1nc(OC[C@@]23CCCN2C[C@H](F)C3)nc(N2CC3(C2)SCc2sc(N)c(C#N)c23)n1 (stereo partly drawn) [Compound 249]"
  target_entity: "phospho-ERK in SW620 (KRAS-G12V) cells"
  IC50: "1000 to 20000 nM"
- compound: "CC(c1c[nH]nn1)N(CC#N)c1nc(OC[C@@]23CCCN2C[C@H](F)C3)nc(N2CC3(C2)SCc2sc(N)c(C#N)c23)n1 (stereo partly drawn) [Compound 250]"
  target_entity: "phospho-ERK in SW620 (KRAS-G12V) cells"
  IC50: "100 to 1000 nM"
- compound: "C[C@H](c1cccnc1N)N(C)c1nc(OC[C@@]23CCCN2C[C@H](F)C3)nc(N2CC(C)(c3csc(N)c3C#N)C2)n1 [Compound 172]"
  target_entity: "phospho-ERK in SW620 (KRAS-G12V) cells"
  IC50: "10 to 100 nM"

----------
target: GST-tagged KRAS-G12D (2-169) (Homo sapiens, UniProt P01116, G12D); assay: Nucleotide exchange assay (NEA), SOS-mediated, HTRF, KRAS G12D; type: biochemical; conditions: Table 4; IC50 extracted at 30 min; 20 nM SOScat; read-out: NEA G12D IC50
IC50 values by entry
assay_readout: IC50

- molecule: "CC(O)CN(c1nc(OC[C@@]23CCCN2C[C@H](F)C3)nc(N2CC3(C2)SCc2sc(N)c(C#N)c23)n1)C1(C#N)CC1 (stereo partly drawn) [Compound 261]"
  assay_readout: "IC50"
  observed: "< 10 nM"
- molecule: "N#Cc1c(N)sc2c1C1(CC2)CN(c2nc(OC[C@@]34CCCN3C[C@H](F)C4)nc(N3C[C@H](O)C[C@@H](O)C3)n2)C1 [Compound 26]"
  assay_readout: "IC50"
  observed: "10 to 100 nM"
- molecule: "N#Cc1c(N)sc2c1C1(CC2)CN(c2nc(OC[C@@]34CCCN3C[C@H](F)C4)nc(N(CCO)Cc3cccnc3N)n2)C1 [Compound 107]"
  assay_readout: "IC50"
  observed: "< 10 nM"
- molecule: "N#Cc1c(N)sc2c1C1(CN(c3nc(OC[C@@]45CCCN4C[C@H](F)C5)nc(N(Cc4cccnc4N)C4COC4)n3)C1)SC2 [Compound 217]"
  assay_readout: "IC50"
  observed: "1000 to 20000 nM"
- molecule: "CC(c1nonc1N)N(C)c1nc(OC[C@@]23CCCN2C[C@H](F)C3)nc(N2CC3(CCc4sc(N)c(C#N)c43)C2)n1 (stereo partly drawn) [Compound 156]"
  assay_readout: "IC50"
  observed: "100 to 1000 nM"
- molecule: "N#Cc1c(N)sc2c1C1(CC2)CN(c2nc(OC[C@@]34CCCN3C[C@H](F)C4)nc(N3CCCC(C#N)C3)n2)C1 (stereo partly drawn) [Compound 13]"
  assay_readout: "IC50"
  observed: "10 to 100 nM"

----------
Molecular target: GST-tagged KRAS-G12V (2-169) (Homo sapiens, UniProt P01116, G12V)
Assay: Nucleotide exchange assay (NEA), SOS-mediated, HTRF, KRAS G12V
Details: Table 4; IC50 extracted at 90 min; 80 nM SOS
Excerpt: This activity is tightly regulated by GTPase activating proteins (GAPs) and guanine nucleotide exchange factors (GEFs). […] Homogenous time resolved fluorescence (HTRF) was used to detect SOS-mediated binding of a fluorescent GTP analog, GTP-DY-647P1 (Jena Biosciences NU-820-647P1) to GST-tagged KRAS-G12D (2-169) or to GST-tagged KRAS-G12V (2-169, Reaction Biology, MSC-11-540). […]
pIC50: −log10 of the molar value.
# key: entry, value: pIC50

- compound: "CC(c1cccnc1C(F)F)N(C)c1nc(OC[C@@]23CCCN2C[C@H](F)C3)nc(N2CC3(C2)SCc2sc(N)c(C#N)c23)n1 (stereo partly drawn)"
  pIC50: "6.00 to 7.00"
- compound: "CC(C#N)COc1nc(OC[C@@]23CCCN2C[C@H](F)C3)nc(N2CC3(CCc4sc(N)c(C#N)c43)C2)n1 (stereo partly drawn)"
  pIC50: "7.00 to 8.00"
- compound: "N#Cc1c(N)sc2c1C1(CC2)CN(c2nc(OC[C@@]34CCCN3C[C@H](F)C4)nc(N(CCO)Cc3c(F)ccnc3N)n2)C1"
  pIC50: "> 8.00"
- compound: "C[C@H](c1cccnc1N)N(C)c1nc(OC[C@@]23CCCN2C[C@H](F)C3)nc(N2CCC3(CCc4sc(N)c(C#N)c43)C2)n1 (stereo partly drawn)"
  pIC50: "> 8.00"
- compound: "C[C@@]1(O)CCCN(c2nc(OC[C@]34CCCN3[C@H](COc3cc(C(F)(F)F)ncn3)CC4)nc(N3CC4(C3)SCc3sc(N)c(C#N)c34)n2)C1 (racemic)"
  pIC50: "> 8.00"
- compound: "CC1(O)CC(F)CN(c2nc(OCC3(CN4CCOCC4)CC3)nc(N3CC4(CCc5sc(N)c(C#N)c54)C3)n2)C1 (stereo not drawn)"
  pIC50: "> 8.00"
- compound: "N#Cc1c(N)sc2c1C1(CN(c3nc(OC[C@@]45CCCN4C[C@H](F)C5)nc(N4C5CCC4COC5)n3)C1)SC2 (racemic)"
  pIC50: "7.00 to 8.00"
- compound: "C[C@H](c1cccnc1N)N(CC(F)F)c1nc(OC[C@@]23CCCN2C[C@H](F)C3)nc(N2CC3(C2)SCc2sc(N)c(C#N)c23)n1"
  pIC50: "> 8.00"
- compound: "CC1(O)CCCN(c2nc(OCC34CCCN3C(COc3cc(C(F)(F)F)ncn3)CC4)nc(N3CC4(C3)SCc3sc(N)c(C#N)c34)n2)C1 (single isomer, unassigned) [Compound 256A]"
  pIC50: "> 8.00"
- compound: "C[C@@]1(O)CCCN(c2nc(OC[C@@]34CCCN3C[C@H](F)C4)nc(N3CC4(C3)c3c(sc(N)c3C#N)CC4(F)F)n2)C1"
  pIC50: "> 8.00"
- compound: "N#Cc1c(N)sc2c1C1(CC2)CN(c2nc(OC[C@@]34CCCN3C[C@H](F)C4)nc(O[C@@H]3COC[C@H]3O)n2)C1 (racemic)"
  pIC50: "4.70 to 6.00"
- compound: "CC(c1nccnc1N)N(C)c1nc(OC[C@@]23CCCN2C[C@H](F)C3)nc(N2CC3(CCc4sc(N)c(C#N)c43)C2)n1 (single isomer, unassigned) [Compound 116B]"
  pIC50: "7.00 to 8.00"
